Cited source: paper PMC10726135

# Tgt: HNF4alpha2 (COS-7 nuclear extract) (Homo sapiens, UniProt P41235 1-474)
# Sequence: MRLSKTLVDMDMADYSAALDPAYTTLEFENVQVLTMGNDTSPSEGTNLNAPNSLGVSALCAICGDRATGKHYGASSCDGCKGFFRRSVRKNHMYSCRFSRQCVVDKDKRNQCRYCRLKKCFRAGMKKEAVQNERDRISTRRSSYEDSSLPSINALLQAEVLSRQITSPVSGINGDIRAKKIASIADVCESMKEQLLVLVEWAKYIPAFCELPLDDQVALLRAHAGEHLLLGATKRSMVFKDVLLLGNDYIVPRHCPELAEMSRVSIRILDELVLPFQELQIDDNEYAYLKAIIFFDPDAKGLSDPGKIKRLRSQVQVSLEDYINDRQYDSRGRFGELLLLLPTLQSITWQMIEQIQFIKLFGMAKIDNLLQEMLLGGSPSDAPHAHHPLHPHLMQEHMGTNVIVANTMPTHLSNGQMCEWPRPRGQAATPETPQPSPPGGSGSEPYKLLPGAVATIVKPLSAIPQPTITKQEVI
# Protocol Details: protein-binding microarray; COS-7 nuclear extract on double-stranded Agilent 4x180k PBM; binding buffer, salt, pH and temperature not given in the material; high values mean tight binding
# Condition Context: chain copies: 2; label: 3' end of strand 1 on the slide; dsDNA, one strand shown
Whole data set: some 18,000 sequences, median “log2 normalized intensity” near 0.39, cut for the highest 2% near 6.6. The entries come from a sample that favours the highest values as a whole.
Listed here: items and their measured binding signal.

# Sequence, binding signal
data = [
    ("GCAGAATCAAAGGTCAAAATATCTGATCGAGCCTAGGGAGATTAGAGTATCGGTCGA", "3.32 log2 normalized intensity"),
    ("CTCTGTGCTCCCAGTTCCCTCATTAGTAACGCCTAGGGAGATTAGAGTATCGGTCGA", "1.33 log2 normalized intensity"),
    ("ATGATTGACAGGTTATTTCAATTACAAAGCGCCTAGGGAGATTAGAGTATCGGTCGA", "1.06 log2 normalized intensity"),
    ("GTCCCAGTAGATAACTTCAAGGAGCTCGGCGCCTAGGGAGATTAGAGTATCGGTCGA", "-0.627 log2 normalized intensity"),
    ("CCACATTCTGAGACTAAAGAGTACACAAAGGCCTAGGGAGATTAGAGTATCGGTCGA", "-0.922 log2 normalized intensity"),
]

q: Which binding signal value is on record for ACCAGCGTAATTCTGGCTCTTTGAGTGGTTGCCTAGGGAGATTAGAGTATCGGTCGA ?
a: 0.76 log2 normalized intensity

q: Which value of binding signal has been reported for ATTCCTATCGCCCTTCTGTCAAGTCCAAAGGCCTAGGGAGATTAGAGTATCGGTCGA in the records?
a: -0.648 log2 normalized intensity

q: So what's the measured binding signal for this one? AGGGTTCAAACTCCAGCTCTGATACTTTCTGCCTAGGGAGATTAGAGTATCGGTCGA
a: 3.12 log2 normalized intensity

q: Requested read-out: binding signal. Entry: TGTAACTGTAACTATATTGACCACCTCCTCGCCTAGGGAGATTAGAGTATCGGTCGA
a: 1.76 log2 normalized intensity

* * *

# Tgt: HNF4alpha2 (COS-7 nuclear extract) (Homo sapiens, UniProt P41235 1-474)
# Sequence: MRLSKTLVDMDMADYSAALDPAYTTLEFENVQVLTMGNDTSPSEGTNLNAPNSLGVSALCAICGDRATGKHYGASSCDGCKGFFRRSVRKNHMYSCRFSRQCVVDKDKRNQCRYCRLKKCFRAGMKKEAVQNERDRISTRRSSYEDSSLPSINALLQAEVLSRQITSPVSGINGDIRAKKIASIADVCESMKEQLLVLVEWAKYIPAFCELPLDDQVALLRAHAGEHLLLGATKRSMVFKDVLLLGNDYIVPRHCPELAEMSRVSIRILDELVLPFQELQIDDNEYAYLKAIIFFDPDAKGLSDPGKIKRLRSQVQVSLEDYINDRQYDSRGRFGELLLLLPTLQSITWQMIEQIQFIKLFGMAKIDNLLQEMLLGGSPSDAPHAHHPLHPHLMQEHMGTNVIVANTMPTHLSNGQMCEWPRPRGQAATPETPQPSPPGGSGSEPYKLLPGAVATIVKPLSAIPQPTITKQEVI
# Protocol Details: protein-binding microarray; COS-7 nuclear extract on double-stranded Agilent 4x180k PBM; binding buffer, salt, pH and temperature not given in the material; high values mean tight binding
# Condition Context: chain copies: 2; label: 3' end of strand 1 on the slide; dsDNA, one strand shown
Over roughly 18,000 sequences, “log2 normalized intensity” has its median near 0.39; the highest 2% begin near 6.6. The full list was thinned out, with the highest values kept by preference.
Just a reminder that ties go to No: only binding signal strictly below 4 log2 normalized intensity counts as Yes.

Below are worked cases with known answers.
# Sequence, Class Label
measured = [
    ("CTGGCATCTGGTCAGGGGTCAAGAAGCTCTGCCTAGGGAGATTAGAGTATCGGTCGA", "Yes"),
    ("ATCCTTATCTTGTAGAAAAGTGCATGGATTGCCTAGGGAGATTAGAGTATCGGTCGA", "Yes"),
    ("TTCTTCTGGTTCTGCAAGGCAACTGACCTTGCCTAGGGAGATTAGAGTATCGGTCGA", "Yes"),
]

q: Find out if reported binding signal for TTATGCAGACCTTTGCCCTTTGTTTACATAGCCTAGGGAGATTAGAGTATCGGTCGA is less than 4 log2 normalized intensity
a: No

q: For TATACAAGAAAGAAAGAATGTTTGCTTCTGGCCTAGGGAGATTAGAGTATCGGTCGA , is the recorded binding signal below the cut-off of 4 log2 normalized intensity?
a: Yes

q: Given the entry CTCCAGGGCACTGCCCTTTGGAACCTGCCCGCCTAGGGAGATTAGAGTATCGGTCGA , would its reported binding signal be below 4 log2 normalized intensity?
a: No

q: Lab note: binding signal threshold 4 log2 normalized intensity. Does this sequence come in strictly under it? TGAGATAGGTACTATTATTAGAGTCCCTTTGCCTAGGGAGATTAGAGTATCGGTCGA
a: Yes

q: Record CCCAGATATCTCTGGTAAACAGCTGACAATGCCTAGGGAGATTAGAGTATCGGTCGA : is its binding signal strictly below 4 log2 normalized intensity?
a: Yes

q: Confirm or reject: binding signal of GGGCGAGAGAGTTCTATGGGATGACCTTTGGCCTAGGGAGATTAGAGTATCGGTCGA lies strictly below 4 log2 normalized intensity
a: No

q: Lab note: confirm whether the reported binding signal for this sequence is below 4 log2 normalized intensity, equality not counting. sequence: GTCTAGATGCTGGGCAGCTTGTGTGCGTTTGCCTAGGGAGATTAGAGTATCGGTCGA
a: Yes

q: Please indicate whether the reported binding signal of CCCGGCAGATCAGGGTCAGGCTGTGGTACGGCCTAGGGAGATTAGAGTATCGGTCGA is strictly below 4 log2 normalized intensity.
a: Yes

q: Lab log: compare recorded binding signal with 4 log2 normalized intensity; is it strictly lower for CACTCTGGTGCCCTCTGAGTGTTTGACCTTGCCTAGGGAGATTAGAGTATCGGTCGA ?
a: No

q: I wonder whether GCAGGGGATGCCCTTTGACCTCTGCTTCCTGCCTAGGGAGATTAGAGTATCGGTCGA has binding signal below 4 log2 normalized intensity. Can you tell?
a: No

q: Just wondering, is binding signal of AAGATGGGCATTAGGTGGACAGGGGTGTGTGCCTAGGGAGATTAGAGTATCGGTCGA below 4 log2 normalized intensity?
a: Yes

q: Say whether its binding signal is strictly beneath 4 log2 normalized intensity. Entry: TTTCAAGAATGGAGAAAACAACATTCCTTGGCCTAGGGAGATTAGAGTATCGGTCGA
a: Yes

q: Dear colleague, could you confirm whether binding signal of TCTGGTGCCAAGGAGCCTCTGCAACCTTTGGCCTAGGGAGATTAGAGTATCGGTCGA falls below 4 log2 normalized intensity? Thanks.
a: Yes

q: Report whether reported binding signal is lower than 4 log2 normalized intensity (strictly) for TGACAAGCAAACACAAACTATGACCTTTGAGCCTAGGGAGATTAGAGTATCGGTCGA
a: No

q: Please check: binding signal for TGGTGCCCTCTGAGTGTTTGACCTTTCACCGCCTAGGGAGATTAGAGTATCGGTCGA , strictly under 4 log2 normalized intensity or not?
a: No

q: binding signal under 4 log2 normalized intensity? Item: TGATAGCCTTTTACCTTGGCAGCCACTGAGGCCTAGGGAGATTAGAGTATCGGTCGA
a: Yes

q: Given GACTGGAAGTTGCCCGAGCTGCCCTTTATCGCCTAGGGAGATTAGAGTATCGGTCGA , is recorded binding signal strictly lower than 4 log2 normalized intensity?
a: Yes

q: API: query returns whether the sequence falls strictly under 4 log2 normalized intensity in binding signal. Query: TCAGCACTGAGAGATTACATTTGACTGAGGGCCTAGGGAGATTAGAGTATCGGTCGA
a: Yes

q: Confirm or reject: binding signal of AGGGCCCTTCACTATTTTCAAAGGTCAACAGCCTAGGGAGATTAGAGTATCGGTCGA lies strictly below 4 log2 normalized intensity
a: Yes

q: binding signal under 4 log2 normalized intensity? Item: ATGCCCCTCCCAGGGACACATGCCCCTTCCGCCTAGGGAGATTAGAGTATCGGTCGA
a: No

q: Record ATGGTTTGACCCTGCGATAAGTAGATACCAGCCTAGGGAGATTAGAGTATCGGTCGA : is its binding signal strictly below 4 log2 normalized intensity?
a: Yes

q: Given the entry TCTTTTTGCCACTAGGGGTCACTGTCACATGCCTAGGGAGATTAGAGTATCGGTCGA , would its reported binding signal be below 4 log2 normalized intensity?
a: Yes

q: Could you please tell me whether binding signal recorded for AGTCCAGACAAGTCCCAAGTATTTTCAGCCGCCTAGGGAGATTAGAGTATCGGTCGA is less than 4 log2 normalized intensity?
a: Yes

q: State whether 4 log2 normalized intensity exceeds binding signal recorded for CCAGGGACTTTGAACACTTCTTTGTTACTTGCCTAGGGAGATTAGAGTATCGGTCGA .
a: Yes

q: Given the entry GTATCTAATCTCAGATATGCTAATTAACCCGCCTAGGGAGATTAGAGTATCGGTCGA , would its reported binding signal be below 4 log2 normalized intensity?
a: Yes

q: Does this sequence meet the criterion binding signal < 4 log2 normalized intensity? CCCTTTGACCTCTGCTTCCTGCTACAGAGCGCCTAGGGAGATTAGAGTATCGGTCGA
a: Yes

q: # TODO verify binding signal < 4 log2 normalized intensity strictly for this sequence: AGCAAACACAAACTATGACCTTTGAAACTTGCCTAGGGAGATTAGAGTATCGGTCGA
a: No
